Provide the reported pIC50 of each item.
# Tested on: T47D
# Experimental Details: cells
# Assay type: cell-based
# Study Conditions: Homo sapiens, 120 h, read-out: T47D IC50
Numbers only, as −log10 of the molar value.

# example entries with known answers
{"Molecule": "CC[C@@]1(O)C(=O)OCc2c1cc1n(c2=S)Cc2c-1nc1cc(Cl)c(C)cc1c2CNC(=O)[C@H]1C[C@@H](O)C1", "pIC50": 9.07}
{"Molecule": "CC[C@@]1(O)C(=O)OCc2c1cc1n(c2=S)Cc2c-1nc1cc(F)c(OC)cc1c2CNC(=O)[C@H](C)O", "pIC50": 10.05}
{"Molecule": "CC[C@@]1(O)C(=O)OCc2c1cc1n(c2=S)Cc2c-1nc1cc(F)c(C)cc1c2[C@@H](C)N", "pIC50": 9.85}
{"Molecule": "CC[C@@]1(O)C(=O)OCc2c1cc1n(c2=S)Cc2c-1nc1cc(F)c(F)cc1c2CNC(=O)[C@H](C)O", "pIC50": 8.55}

I'm hoping you can list pIC50 for every molecule here, please.
1. CC[C@@]1(O)C(=O)OCc2c1cc1n(c2=S)Cc2c-1nc1cc3c(cc1c2CN)OCCO3
2. CC[C@@]1(O)C(=O)OCc2c1cc1n(c2=S)Cc2c-1nc1cc(F)c(C)cc1c2CNC(=O)[C@H](C)O
3. CC[C@@]1(O)C(=O)OCc2c1cc1n(c2=O)Cc2c-1nc1cc(F)c(C)c3c1c2[C@@H](N)CC3 [EXD, Exatecan, reference compound]

stdout:
1. 10.23
2. 9.94
3. 9.66

###

# Test system: NCI-N87
# Experimental Details: In vitro proliferation inhibition assay of camptothecin derivatives (Payload), Test Example 1
# Assay type: cell-based
# Study Conditions: Homo sapiens, NCI-N87, 96 h, read-out: NCI-N87 IC50
Provide the reported IC50 of each item.
Numbers only, in nM.

# example entries with known answers
{"Compound": "CC[C@@]1(O)C(=O)OCc2c1cc1n(c2=S)Cc2c-1nc1cc(F)c(C)cc1c2CN [Compound 11]", "Assay Value": 1.56}
{"Compound": "CC[C@@]1(O)C(=O)OCc2c1cc1n(c2=S)Cc2cc3cc(N)c(F)cc3nc2-1 [Example 46]", "Assay Value": 0.229}
{"Compound": "CCC1(OC(=O)Cc2ccc(OC3OC(CO)C(O)C(O)C3O)cc2)C(=O)OCc2c1cc1n(c2=O)Cc2c-1nc1cc(F)c(C)c3c1c2C(N)CC3 (stereo not drawn) [Compound 3]", "Assay Value": 1.91}

I'm hoping you can list IC50 for every compound here, please.
1. CC[C@@]1(O)C(=O)OCc2c1cc1n(c2=S)Cc2c-1nc1cc(F)c(C)cc1c2CNC(=O)CO [Compound 17]
2. CC[C@@]1(O)C(=O)OCc2c1cc1n(c2=O)Cc2c-1nc1cc(F)c(C)c3c1c2[C@@H](NC(=O)CO)CC3 [DXD, Dxd, reference compound]
3. CC[C@@]1(O)C(=O)OCc2c1cc1n(c2=O)Cc2c-1nc1cc(F)c(C)c3c1c2[C@@H](N)CC3 [EXD, Exatecan, reference compound]

stdout:
0.999
5.97
1.45

###

# Test system: T47D
# Experimental Details: cells
# Assay type: cell-based
# Study Conditions: Homo sapiens, 120 h, read-out: T47D IC50
# Procedure: Test Example 2 In vitro proliferation inhibition assay of the camptothecin derivatives (Payload) of the present invention on tumor cells 1. Instruments and Reagents 2. Experimental Procedure • a. […] The optical density (OD) at 450 nm was measured using a microplate reader (model: CEY0017), and the data was recorded with Excel. • c. […]
Cut-off 0.2 nM on IC50: below means Y, at or above means N.

{"Compound": "CC[C@@]1(O)C(=O)OCc2c1cc1n(c2=S)Cc2c-1nc1cc3c(cc1c2CNC(=O)CO)OCCO3", "Target Of Assay": "T47D", "Classification": "Y"}
{"Compound": "CC[C@@]1(O)C(=O)OCc2c1cc1n(c2=S)Cc2c-1nc1cc(F)c(C)cc1c2CNC(=O)[C@@H](O)C1CC1", "Target Of Assay": "T47D", "Classification": "N"}
{"Compound": "CC[C@@]1(O)C(=O)OCc2c1cc1n(c2=S)Cc2c-1nc1cc(F)c(OC)cc1c2CN", "Target Of Assay": "T47D", "Classification": "Y"}
{"Compound": "CC[C@@]1(O)C(=O)OCc2c1cc1n(c2=S)Cc2c-1nc1cc(Cl)c(C)cc1c2CNC(=O)[C@H](C)O", "Target Of Assay": "T47D", "Classification": "Y"}
{"Compound": "CC[C@@]1(O)C(=O)OCc2c1cc1n(c2=S)Cc2c-1nc1cc(F)c(C)cc1c2CNC(=O)C1CCC(O)C1 (stereo partly shown)", "Target Of Assay": "T47D", "Classification": "Y"}
{"Compound": "CC[C@@]1(O)C(=O)OCc2c1cc1n(c2=S)Cc2c-1nc1cc(F)c(C)cc1c2CNCCO", "Target Of Assay": "T47D", "Classification": "Y"}
{"Compound": "CC[C@@]1(O)C(=O)OCc2c1cc1n(c2=S)Cc2c-1nc1cc(F)c(C)cc1c2CNC(=O)[C@@H](C)O", "Target Of Assay": "T47D", "Classification": "Y"}
{"Compound": "CC[C@@]1(O)C(=O)OCc2c1cc1n(c2=S)Cc2c-1nc1cc(F)c(OC)cc1c2CNC(=O)[C@H]1C[C@@H](O)C1", "Target Of Assay": "T47D", "Classification": "N"}
{"Compound": "CC[C@@]1(O)C(=O)OCc2c1cc1n(c2=S)Cc2c-1nc1cc(F)c(OC)cc1c2CNC(=O)CO", "Target Of Assay": "T47D", "Classification": "Y"}

stdin: Does the reported IC50 of CC[C@@]1(O)C(=O)OCc2c1cc1n(c2=S)Cc2c-1nc1cc3c(cc1c2CNC(=O)[C@@H](C)O)OCCO3 stay below 0.2 nM?
stdout: N
